// cross-source set; read-out = pIC50; system = Hematopoietic prostaglandin D synthase (Homo sapiens, UniProt O60760)
Sequence (O60760 whole entry): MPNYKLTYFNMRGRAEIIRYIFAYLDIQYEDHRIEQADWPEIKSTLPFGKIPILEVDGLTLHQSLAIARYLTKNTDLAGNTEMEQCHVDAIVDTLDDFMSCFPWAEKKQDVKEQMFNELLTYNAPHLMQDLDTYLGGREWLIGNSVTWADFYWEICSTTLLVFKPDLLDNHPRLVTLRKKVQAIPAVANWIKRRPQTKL
pIC50 here is simply -log10 of the concentration when that concentration is written in mol/L.

Specify the recorded pIC50 for `O=C(NCCN1CCOCC1)c1ccc(N2CCC(NC(=O)N3CCN(C(=O)c4cccs4)CC3)CC2)cc1` , system: Hematopoietic prostaglandin D synthase (Homo sapiens, UniProt O60760).
6.70

Specify the recorded pIC50 for `Cc1nc(-c2ccccn2)ncc1C(=O)Nn1ccc2c(C(F)(F)F)cccc21` , system: Hematopoietic prostaglandin D synthase (Homo sapiens, UniProt O60760).
8.00

Specify the recorded pIC50 for NC(=O)C(Cc1c[nH]c2ccccc12)NC(=O)c1ccc(-c2cccc(O)c2)cc1 (stereo not given) , system: Hematopoietic prostaglandin D synthase (Homo sapiens, UniProt O60760).
6.00

Specify the recorded pIC50 for `CN1CCN(C(=O)C2CCN(c3ccc(NC(=O)N4CCN(C(=O)c5cccn5C)CC4)cc3)CC2)CC1` , system: Hematopoietic prostaglandin D synthase (Homo sapiens, UniProt O60760).
7.22
